# Tested on: Bacillus subtilis
# experimentSummary: Antimicrobial activity against Bacillus subtilis ATCC 11774 after 18 to 24 hrs by microbroth dilution method
# Type: functional
Listed here are compounds together with their documented MIC.
Lab book: enter the figure in µg/mL, no units written.

Example cases with answers are listed next.
sampleSmiles: CCn1cc(C(=O)O)c(=O)c2cc(F)c(N3CCC(Br)CC3)c(F)c21
reportedValue: 2.5

sampleSmiles: CCn1cc(C(=O)O)c(=O)c2cc(F)c(N3CCC(NC)CC3)c(F)c21
reportedValue: 1.25

sampleSmiles: O=C(O)c1cn(C2CC2)c2cc(N3CCNCC3)c(F)cc2c1=O
reportedValue: 1.5

sampleSmiles: CCn1cc(C(=O)O)c(=O)c2cc(F)c(N3CCC(CO)CC3)c(F)c21
reportedValue: 1

sampleSmiles: CCn1cc(C(=O)O)c(=O)c2cc(F)c(N3CCN(c4ccccc4F)CC3)c(F)c21
reportedValue: 1.25

[Q] # MIC lookup, item "CCn1cc(C(=O)O)c(=O)c2cc(F)c(N3CCN(c4ccccc4C#N)CC3)c(F)c21"
[A] 1.5

[Q] Likewise for "CCn1cc(C(=O)O)c(=O)c2cc(F)c(N3CCN(c4cccc(Cl)c4Cl)CC3)c(F)c21" ?
[A] 5

[Q] Likewise for "CCn1cc(C(=O)O)c(=O)c2cc(F)c(N3CCC(C)CC3)c(F)c21" ?
[A] 5

[Q] Likewise for "CCn1cc(C(=O)O)c(=O)c2cc(F)c(N3CCN(c4ccccc4)CC3)c(F)c21" ?
[A] 5

[Q] Likewise for "CCn1cc(C(=O)O)c(=O)c2cc(F)c(N3CCN(c4ccc(F)cc4)CC3)c(F)c21" ?
[A] 2.5
